species on record: Rattus norvegicus; test: DrugMatrix - Regimen: Daily Repeat; type: toxicity, organism-based, Sprague-Dawley; set-up: regimen Daily Repeat, gender Male, age 6-8 weeks; conditions: in vivo, po, 1500 mg/kg, 72 h, tissue Plasma, route oral GAVAGE, dose level High, time 3 day, vehicle .5 % CMC
observationType: TOTAL PROTEIN (G/DL)
Give a bare numeral; the unit G/DL is implied.

Ask: Please give the measured TOTAL PROTEIN for this compound: CC[C@H]1OC(=O)[C@H](C)[C@@H](O[C@H]2C[C@@](C)(OC)[C@@H](O)[C@H](C)O2)[C@H](C)[C@@H](O[C@@H]2O[C@H](C)C[C@H](N(C)C)[C@H]2O)[C@](C)(O)C[C@@H](C)C(=O)[C@H](C)[C@@H](O)[C@]1(C)O [ERYTHROMYCIN]
Result: 6.17

Ask: Suppose we examine the compound Cc1ccc(S(=O)(=O)NC(=O)NN2CCCCCC2)cc1 [TOLAZAMIDE] ; what TOTAL PROTEIN value has been reported?
Result: 5.8

Ask: I have this compound here, COc1cc(/C=C/C(=O)O)ccc1O [FERULATE] , and I need its recorded TOTAL PROTEIN.
Result: 5.5

Ask: Record request: TOTAL PROTEIN value, item O=C(O)CCc1nc(-c2ccccc2)c(-c2ccccc2)o1 [OXAPROZIN]
Result: 5.73

Ask: Reported TOTAL PROTEIN for COc1ccc(Cl)cc1C(=O)NCCc1ccc(S(=O)(=O)NC(=O)NC2CCCCC2)cc1 [GLYBURIDE] : what is it?
Result: 5.47

* * *

organism: Rattus norvegicus; test: DrugMatrix - Regimen: Daily Repeat; format: toxicity, organism-based, Sprague-Dawley; parameters: regimen Daily Repeat, gender Male, age 6-8 weeks; conditions: in vivo, po, 0 mg/kg, 72 h, tissue Blood, route oral GAVAGE, dose level Control, time 3 day, vehicle 100 % SALINE
observationType: ABSOLUTE MONOCYTE (CELLS/uL)
Write down the numeric answer in CELLS/uL and omit the unit.

Ask: So what does the record say about ABSOLUTE MONOCYTE for O=[As][O-].[Na+] [SODIUM ARSENITE] ?
Result: 401.5

Ask: For the compound CCN(CC)N=O , what ABSOLUTE MONOCYTE is on record?
Result: 103.5

Ask: Which ABSOLUTE MONOCYTE is listed for CCO ?
Result: 401.5

Ask: Which measured ABSOLUTE MONOCYTE value corresponds to Cc1ccnc2c1NC(=O)c1cccnc1N2C1CC1 ?
Result: 122.67

Ask: Which ABSOLUTE MONOCYTE reading was recorded for the compound CC(CN1c2ccccc2Sc2ccccc21)N(C)C (stereo not given) ?
Result: 0

* * *

species: Rattus norvegicus; test: DrugMatrix - Regimen: Daily Repeat; assay type: toxicity, organism-based, Sprague-Dawley; design: regimen Daily Repeat, gender Male, age 6-8 weeks; settings: in vivo, po, 1500 mg/kg, 72 h, tissue Blood, route oral GAVAGE, dose level High, time 3 day, vehicle .5 % CMC
observationType: NUCLEATED RED BLOOD CELLS

Ask: So what's the measured NUCLEATED RED BLOOD CELLS for this one? COc1cc(/C=C/C(=O)O)ccc1O [FERULATE]
Result: 0.33 /100WBC

Ask: Could you share which NUCLEATED RED BLOOD CELLS value was measured for O=C(O)CCc1nc(-c2ccccc2)c(-c2ccccc2)o1 [OXAPROZIN] ?
Result: 0 /100WBC

Ask: May I ask what NUCLEATED RED BLOOD CELLS has been recorded for CC[C@H]1OC(=O)[C@H](C)[C@@H](O[C@H]2C[C@@](C)(OC)[C@@H](O)[C@H](C)O2)[C@H](C)[C@@H](O[C@@H]2O[C@H](C)C[C@H](N(C)C)[C@H]2O)[C@](C)(O)C[C@@H](C)C(=O)[C@H](C)[C@@H](O)[C@]1(C)O [ERYTHROMYCIN] ?
Result: 0 /100WBC

Ask: Request the reported NUCLEATED RED BLOOD CELLS associated with Cc1ccc(S(=O)(=O)NC(=O)NN2CCCCCC2)cc1 [TOLAZAMIDE]
Result: 0 /100WBC
